Recorded values, source PubChem BioAssay AID1159580.

# assay_summary: chemical genetic growth profiling, strain panel (AID 1159580);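 note: tested at 20 µM; growth read once vehicle control cultures reached saturation at 30 °C; 1 = growth at the plate median or of vehicle wells; lower values mean less growth of the strain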
# assay_conditions: S. cerevisiae deletion strains, growth OD, locus YOL006C, strain TOP1, active compounds read low
Out of some 5,500 compounds screened, about 2,000 (36%) were called active. Another 18% or so got no clear call; they are omitted. Some of the results follow.
measured_quantity: normalized growth
Output spec: single numeric token, no unit.

Previously resolved entries follow.
Request the reported normalized growth associated with `COc1ccc2cc3[n+](cc2c1OC)CCc1cc2c(cc1-3)OCO2`
0.405

Thanks! And `O=C(Nc1ccccc1SCc1cccc(C(F)(F)F)c1)c1c(F)cccc1Cl` ?
0.963

Now give it for `COc1ccc(-c2cc(=O)c3c(OC(C)=O)cc(OC(C)=O)cc3o2)cc1` too.
0.97

What about this molecule? `CN(C)CCC=C1c2ccccc2C=Cc2ccccc21`
0.852

// same read-out, input: `O=c1[nH]c2cc(Cl)c(Cl)cc2[nH]c1=O`
1.05

// query: `C[n+]1cc2c3c(ccc2c2ccc4cc5c(cc4c21)OCO5)OCO3`
0.135

Another molecule to look at: `Cc1ccc(OCC(=O)NN)c2c1CCC2`
1.01

Again, but for `COc1cc2cc[n+]3cc4c(OC)c(OC)ccc4cc3c2cc1OC`
1.02

And `O=C1CCc2cc(OCCCCc3nnnn3C3CCCCC3)ccc2N1` ?
1.01

Now consider `COc1cccc(-c2cc(=O)c3ccc(OC)cc3o2)c1` .
0.659

***
# query: normalized growth of entry `COc1cc2c(cc1OC)-c1cc3ccc(OC)c(OC)c3c[n+]1CC2`
1.01

What do you get for `CNCCC=C1c2ccccc2CCc2ccccc21` ?
0.969

###

# assay_summary: chemical genetic growth profiling, strain panel (AID 1159580);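 note: tested at 20 µM; growth read once vehicle control cultures reached saturation at 30 °C; 1 = growth at the plate median or of vehicle wells; lower values mean less growth of the strain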
# assay_conditions: S. cerevisiae deletion strains, growth OD, locus YDR001C, strain nth1
Out of some 5,500 compounds screened, about 2,000 (36%) were called active. Another 18% or so got no clear call; they are omitted. Cut-off read from the data, not from the text of the source: active = normalized growth mostly below about 0.91 (no sharp cut-off); inconclusive = no clear call, values can overlap the other calls; inactive = mostly above about 0.92. The list shows a part of the results.
Answer with one of the outcomes active, inactive

Some entries whose results are on file:
# lookup: test call for `CCCCCCc1ccc(O)cc1O`
inactive

Again, but for CCC(CCC(C)[C@H]1CCC2C3CC=C4C[C@@H](O)CC[C@]4(C)C3CC[C@@]21C)C(C)C (some centres not stated)
inactive

Proceed to CC(=O)O[C@@H]1CC2C(C)(C)CCC(=O)[C@]2(C)C2CC[C@@]3(C)[C@H](c4ccoc4)OC(=O)C4OC43[C@@]21C (some centres not stated)
inactive

What do you get for CC1(C)O[C@@H]2CC3C4C[C@H](F)C5=CC(=O)C=CC5(C)C4C(O)CC3(C)[C@]2(C(=O)CO)O1 (some centres not stated) ?
inactive

Switching to the query record.
Query: recorded result category for `CC(C)(Oc1ccc(Cl)cc1)C(=O)O` in this test
inactive

###

Entries and their normalized growth values follow.
# assay_summary: chemical genetic growth profiling, strain panel (AID 1159580);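 note: tested at 20 µM; growth read once vehicle control cultures reached saturation at 30 °C; 1 = growth at the plate median or of vehicle wells; lower values mean less growth of the strain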
# assay_conditions: S. cerevisiae deletion strains, growth OD, locus YIL073C, strain SPO22, active compounds read low
The campaign covered roughly 5,500 compounds. About 2,000 (36%) were called active. Roughly 18% stayed inconclusive and do not appear here. Some of the results follow.
A bare number is all that is needed in reply.

Example entries begin here.
Suppose we examine the molecule `CCCCCCCCCCCCCCCC[n+]1ccccc1` ; what normalized growth value has been reported?
0.106

# repeat for `Cc1cc(=O)c2c(O)c3c(cc2o1)OC(C)(C)CC3`
0.899

---
Which normalized growth reading was recorded for the molecule `CN1CCc2c(c3ccccc3n2Cc2ccccc2)C1` ?
0.956

Queued: `ClC(Cl)=C(c1ccc(Cl)cc1)c1ccc(Cl)cc1`
0.941

Could you do the same for `O=C(O)c1nc2cc(Cl)c(Cl)cc2[nH]c1=O` , please?
0.946

Next record, please: CC(=O)O[C@@H]1CC2C(C)(C)C(=O)CC[C@]2(C)C2CC[C@@]3(C)[C@H](c4ccoc4)OC(=O)C4OC43[C@@]21C (stereo partly specified)
1.01

Can you handle COc1cc([C@@H]2c3cc4c(cc3C(O[C@@H]3O[C@@H]5CO[C@@H](c6cccs6)OC5[C@H](O)[C@H]3O)C3COC(=O)[C@@H]32)OCO4)cc(OC)c1O (stereo partly specified) next?
1.04
